All figures here come from patent US20120114652A1.

Catalogue of binders with associated IC50 ratio mouse/human
Target: T1, mouse PAI-1 (mouse, UniProt P22777 24-401)
T1 sequence: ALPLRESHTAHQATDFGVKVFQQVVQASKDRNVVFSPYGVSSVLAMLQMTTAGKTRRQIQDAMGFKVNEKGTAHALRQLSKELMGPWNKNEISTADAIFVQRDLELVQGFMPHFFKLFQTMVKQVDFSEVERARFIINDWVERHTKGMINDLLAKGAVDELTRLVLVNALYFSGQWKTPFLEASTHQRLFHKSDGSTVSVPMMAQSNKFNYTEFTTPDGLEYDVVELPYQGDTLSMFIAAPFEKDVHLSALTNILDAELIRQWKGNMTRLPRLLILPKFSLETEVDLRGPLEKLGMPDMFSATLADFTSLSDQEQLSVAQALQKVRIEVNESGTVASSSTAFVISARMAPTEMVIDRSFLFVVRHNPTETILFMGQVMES
Test: cell-based or functional assay

binder	IC50 ratio mouse/human
Antibody 01, scFv (scFv, V domains shown) VH: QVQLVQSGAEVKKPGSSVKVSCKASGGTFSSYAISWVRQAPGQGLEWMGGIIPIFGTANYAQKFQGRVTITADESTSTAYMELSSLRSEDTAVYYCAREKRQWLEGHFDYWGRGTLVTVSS VL: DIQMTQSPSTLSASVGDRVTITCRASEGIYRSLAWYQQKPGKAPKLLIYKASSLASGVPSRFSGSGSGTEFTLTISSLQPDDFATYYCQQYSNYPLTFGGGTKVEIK	8.2
Antibody 05, scFv (scFv, V domains shown) VH: QVQLQQSGAEVKKPGSSVKVSCKASGGTFSSYAISWVRQAPGQGLEWMGGIIPTFSTANYAQKFRGRVTITADESTSTAYMELSGLRSEDTAVYYCAREKRQWLEGHFDYWGRGTPVTVSS VL: DIQMTQSPSFLSASIGDRVTITCRASEGIYHQLAWYQQKPGKAPKLLIYRASSLASGAPSRFSGSGSGTDFTLTISSLQPDDFATYYCQQYSNYPLTFGGGTKLEIK	144
